Test system: NCI-H460 lung
Assay: NCI-60 one-dose screen, 48 h (100 = growth as untreated, 0 = no growth, -100 = all killed)
Conditions: 10 µM unless noted
About 83,000 compounds went through this panel and 20% of them were active in at least one assay; those are over-represented in the sample as a whole.
Examples of compounds with documented growth follow.
Value Type: growth (%)

> print(dat)
                                   compound  value.type  readout.number
1  CCN1C(=O)N(CC)C2Nn3c(s/c(=C4\C(=O)N(C5CCCC5)c5ccccc54)c3=O)=NC21 (stereo not given)      growth            43.9
2  COc1cc(/C=C2\CCCC3=C2N=C2SC(C)=NN2C3c2cc(OC)c(OC)c(OC)c2)cc(OC)c1OC (stereo not given)      growth           -13.9
3  CCC1CCc2nc3sc(C(=O)Nc4ccccc4C)c(N)c3cc2C1 (stereo not given)      growth            31.5
4  COc1ccc(-c2cn[nH]c2-c2cc(OC)c3c(c2)OCO3)cc1      growth            8.74
5  COc1ccc(C2NC3=C(CCCC3)C(C#N)(C#N)C2(C#N)C#N)cc1 (stereo not given)      growth            97.6

* * *

Test system: SNB-19 CNS
Test: NCI-60 one-dose screen, 48 h (100 = growth as untreated, 0 = no growth, -100 = all killed)
Details: 10 µM unless noted
The panel holds about 83,000 compounds, 20% with a hit somewhere; the sample as a whole holds those more often.
Values of growth greater than or equal to 80% map to Satisfied; values below map to Not satisfied.

> print(dat)
                                   molecule  discrete.label
1  Nc1c(C(=O)Nc2cccc(C(F)(F)F)c2)sc2nc3c(cc12)C(O)CCC3 (stereo not given)       Satisfied
2             O=C(NNC(=S)Nc1ccccc1)c1ccccn1   Not satisfied
3  COc1cccc(/C=C2\SC(N3CCN(c4ccccn4)CC3)=NC2=O)c1       Satisfied

* * *

Test system: SR leukemia
Test: NCI-60 one-dose screen, 48 h (100 = growth as untreated, 0 = no growth, -100 = all killed)
Conditions: 10 µM unless noted
About 83,000 compounds went through this panel and 20% of them were active in at least one assay; those are over-represented in the sample as a whole.
Examples of compounds with documented growth follow.
Value Type: growth (%)

> print(dat)
                                   compound  measured.target  value.type  readout.number
1  CCC1CCc2nc3sc(C(=O)Nc4ccccc4F)c(N)c3cc2C1 (centres undefined)      SR leukemia      growth            16.8
2      Clc1ccc(-c2nc(-c3ccco3)cn3ccnc23)cc1      SR leukemia      growth            63.4
3  COc1ccc(S(=O)(=O)Nc2cc(/C=C\c3cc(OC)c(OC)c(OC)c3)cc(OC)c2OC)cc1OC      SR leukemia      growth              20
4  NS(=O)(=O)c1ccc(NCC(=O)Nc2ccc(-c3nc4ccccc4s3)cc2)cc1      SR leukemia      growth              16
5  COc1ccc(S(=O)(=O)N2CCN(c3cc4c(cc3F)c(=O)c(C(=O)O)cn4C3CC3)CC2)c(OC)c1      SR leukemia      growth            81.6
6    CSc1ccccc1C#C/C=C\C#Cc1ccccc1N1CCCC1=O      SR leukemia      growth            12.5
7  COc1ccc(-c2nc3sccn3c2-c2ccnc(NCCCNS(=O)(=O)c3ccc4ccccc4c3)n2)cc1      SR leukemia      growth              57
8  COc1cc(C2C=C(C)N=C3SC=C(C)N32)cc(OC)c1OC (centres undefined)      SR leukemia      growth           -6.27
9  COc1ccccc1CNCCCN1C(=O)c2ccc3c4c(ccc(c24)C1=O)C(=O)N(CCCNCCCCNCCCCN)C3=O      SR leukemia      growth            2.93

Data provenance: PubChem BioAssay (NCI)
